target: huLTBP1 proTGFβ1 (Homo sapiens, UniProt P01137+Q14766); assay: Octet (BLI) binding, IgG captured on AHC tips, antigen at 100 nM; settings: Table 9; cycle 3; IgG1-agly; 1:1 fit
Sequence (P01137 30-390): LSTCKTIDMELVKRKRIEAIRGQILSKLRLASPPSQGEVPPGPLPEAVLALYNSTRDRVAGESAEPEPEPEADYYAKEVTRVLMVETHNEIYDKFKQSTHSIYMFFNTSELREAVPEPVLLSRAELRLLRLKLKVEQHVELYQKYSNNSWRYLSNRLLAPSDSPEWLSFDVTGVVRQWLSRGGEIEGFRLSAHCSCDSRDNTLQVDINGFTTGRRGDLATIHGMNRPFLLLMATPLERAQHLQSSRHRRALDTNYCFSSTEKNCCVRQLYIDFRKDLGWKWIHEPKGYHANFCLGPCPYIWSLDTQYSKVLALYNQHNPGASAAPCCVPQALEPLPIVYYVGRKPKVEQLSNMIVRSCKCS
Sequence (Q14766 347-1721 limits assumed): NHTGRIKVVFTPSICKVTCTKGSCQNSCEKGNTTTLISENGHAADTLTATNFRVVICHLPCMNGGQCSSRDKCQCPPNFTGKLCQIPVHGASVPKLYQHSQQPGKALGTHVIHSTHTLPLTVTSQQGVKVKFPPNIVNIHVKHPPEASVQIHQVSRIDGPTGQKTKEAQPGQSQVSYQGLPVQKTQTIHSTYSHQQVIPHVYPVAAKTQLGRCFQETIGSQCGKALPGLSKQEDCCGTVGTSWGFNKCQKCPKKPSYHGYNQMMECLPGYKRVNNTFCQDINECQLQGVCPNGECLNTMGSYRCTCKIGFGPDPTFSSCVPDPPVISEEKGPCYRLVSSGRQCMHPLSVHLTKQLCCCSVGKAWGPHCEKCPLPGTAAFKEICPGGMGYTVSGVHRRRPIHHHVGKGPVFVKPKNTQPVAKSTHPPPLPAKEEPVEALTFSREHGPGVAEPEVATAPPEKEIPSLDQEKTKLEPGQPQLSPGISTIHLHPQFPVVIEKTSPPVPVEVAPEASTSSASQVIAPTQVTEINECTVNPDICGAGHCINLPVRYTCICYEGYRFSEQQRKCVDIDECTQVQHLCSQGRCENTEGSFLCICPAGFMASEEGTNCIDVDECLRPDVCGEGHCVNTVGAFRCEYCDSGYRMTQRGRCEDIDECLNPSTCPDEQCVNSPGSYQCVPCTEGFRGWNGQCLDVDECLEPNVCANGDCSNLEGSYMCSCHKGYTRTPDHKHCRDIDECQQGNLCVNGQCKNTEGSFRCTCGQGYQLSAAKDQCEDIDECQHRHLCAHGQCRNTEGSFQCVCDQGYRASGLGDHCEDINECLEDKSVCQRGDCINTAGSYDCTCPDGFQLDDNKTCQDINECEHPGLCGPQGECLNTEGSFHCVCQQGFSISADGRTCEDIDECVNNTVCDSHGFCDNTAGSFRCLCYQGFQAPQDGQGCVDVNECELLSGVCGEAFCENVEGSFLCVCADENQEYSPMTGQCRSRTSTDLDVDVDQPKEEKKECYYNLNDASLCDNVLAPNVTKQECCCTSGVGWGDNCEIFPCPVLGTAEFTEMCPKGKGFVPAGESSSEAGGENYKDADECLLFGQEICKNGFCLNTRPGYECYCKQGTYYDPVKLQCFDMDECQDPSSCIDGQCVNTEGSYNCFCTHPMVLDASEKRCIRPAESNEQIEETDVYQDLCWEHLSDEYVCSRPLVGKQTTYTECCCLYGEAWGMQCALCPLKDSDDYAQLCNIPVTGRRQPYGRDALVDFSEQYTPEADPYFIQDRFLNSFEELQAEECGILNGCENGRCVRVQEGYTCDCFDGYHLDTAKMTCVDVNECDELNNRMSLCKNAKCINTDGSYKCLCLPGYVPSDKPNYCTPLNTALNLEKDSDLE
measured endpoint: Hu LTBP1-proTGFβ1 Kon (M⁻¹ s⁻¹)
Express it in M⁻¹ s⁻¹; write the number only.

Prompt: Specify measured Hu LTBP1-proTGFβ1 Kon for SR-AB37: cycle 3 light chain-optimized antibody, lineage SR-AB22; CDRs SEQ ID NO: 136-141 (antibody, V domains shown) VH: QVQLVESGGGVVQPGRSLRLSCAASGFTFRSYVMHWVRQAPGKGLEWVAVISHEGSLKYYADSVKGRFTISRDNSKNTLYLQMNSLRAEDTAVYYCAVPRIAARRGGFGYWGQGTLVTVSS VL: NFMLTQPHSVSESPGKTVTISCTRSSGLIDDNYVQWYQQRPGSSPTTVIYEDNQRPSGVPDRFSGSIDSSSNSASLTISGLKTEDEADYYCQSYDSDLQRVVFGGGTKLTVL .
Response: 360000

Prompt: Specify measured Hu LTBP1-proTGFβ1 Kon for SR-AB43: cycle 3 light chain-optimized antibody, lineage SR-AB23; CDRs SEQ ID NO: 172-177 (antibody, V domains shown) VH: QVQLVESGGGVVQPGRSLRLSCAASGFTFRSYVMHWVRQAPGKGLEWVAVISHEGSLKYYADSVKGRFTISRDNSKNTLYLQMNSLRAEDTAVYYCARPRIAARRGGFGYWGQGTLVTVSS VL: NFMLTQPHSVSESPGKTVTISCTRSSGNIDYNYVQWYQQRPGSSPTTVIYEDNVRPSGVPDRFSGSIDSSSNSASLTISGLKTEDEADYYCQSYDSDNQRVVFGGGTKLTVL .
Response: 244000

Prompt: Specify measured Hu LTBP1-proTGFβ1 Kon for SR-AB34: cycle 3 light chain-optimized antibody, lineage SR-AB22; CDRs SEQ ID NO: 130-135 (antibody, V domains shown) VH: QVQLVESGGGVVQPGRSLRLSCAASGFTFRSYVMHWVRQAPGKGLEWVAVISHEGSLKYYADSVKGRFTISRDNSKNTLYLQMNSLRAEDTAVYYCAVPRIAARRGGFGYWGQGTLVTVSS VL: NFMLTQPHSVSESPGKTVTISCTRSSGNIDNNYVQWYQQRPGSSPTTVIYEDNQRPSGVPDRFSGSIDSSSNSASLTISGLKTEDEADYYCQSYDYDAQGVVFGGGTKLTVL .
Response: 259000

Prompt: Specify measured Hu LTBP1-proTGFβ1 Kon for SR-AB62: cycle 3 light chain-optimized antibody, lineage SR-AB24; CDRs SEQ ID NO: 286-291 (antibody, V domains shown) VH: QLQLQESGPGLAKPSETLSLTCTVSGGSIRSSSYYWGWIRQPPGKGLEWIGSISYSATTYYNPSLKSRVTISVDTSKNQFSLKLSSVTAADTAVYYCASDPSYDSAAGMDVWGQGTTVTVSS VL: DIQMTQSPSSLSASVGDRVTITCRASKVISSYLNWYQQKPGKAPKLLIYYASSLQSGVPSRFSGSGSGTDFTLTISSLQPEDFATYYCQQSNDWPFTFGGGTKVEIK .
Response: 140000

Prompt: Specify measured Hu LTBP1-proTGFβ1 Kon for SR-AB63: cycle 3 antibody, lineage SR-AB26; CDRs SEQ ID NO: 292-297; HCVR SEQ ID NO: 360, LCVR SEQ ID NO: 361 (antibody, V domains shown) VH: QLQLQESGPGLVKPSETLSLTCTVSGGSIRSSSYYWGWIRQPPGKGLEWIGSISYSATTYYNPSLKSRVTISVDTSKNQFSLKLSSVTAADTAVYYCAGDPSYDSIAGMQVWGQGTTVTVSS VL: DIQLTQSPSSLSASVGDRVTITCRASQSISSYLNWYQQKPGKAPKLLIYAASNLQSGVPSRFSGSGSGTDFTLTISSLQPEDFATYYCQQSFDWPLTFGGGTKVEIK .
Response: 118000
